assay: 384-well plate pilot, post-Golgi transport modulator project, inhibition of yeast transport mutant growth (AID 636); conditions: absorbance 615 nm, about 18 h, stronger effect = higher value
Active and inactive are the calls of the source. Rule as the data show it: active = inhibition above about 31%; inactive = the rest.
Please go through the items and note down their inhibition.

Cc1cc(N2CCN(C3CCCC3)CC2)n2c(nc3ccccc32)c1C#N; -2.19% (inactive)
Cc1nnc2c3ccccc3c(-c3ccccc3)nn12; -6.49% (inactive)
CCOC(=O)c1ccc(NC(=O)CCc2nc(-c3ccc(C)cc3)no2)cc1; -3.29% (inactive)
Cc1cccc(NC(=O)c2cc(NC(=O)c3ccco3)ccc2Cl)n1; -1.56% (inactive)
CCCc1nc2ccccc2c2nc(N)nn12; -5.26% (inactive)

# batch: return inhibition for each of the 7 molecules below
1. Cc1ccc(-c2nn[nH]n2)cc1
2. CCCn1nc(CC(=O)O)c2ccccc2c1=O
3. Clc1ccc(-n2nnnc2Sc2ncnc3sccc23)cc1
4. CC(C)(C)n1ncc2c(=O)n(CC(=O)NCc3ccccc3)cnc21
5. CN1CCC(=C2c3ccccc3C=Cc3ccccc32)CC1
6. Cc1cc2c(cc(C(=O)OCC(=O)NCc3cccs3)n2C(C)C)o1
7. CC(C)Cc1nnc(NC(=O)CCC(=O)N2CCOCC2)s1

## Result
1: -4.79% (inactive); 2: -6.27% (inactive); 3: 20.6% (inactive); 4: -1.2% (inactive); 5: -0.65% (inactive); 6: -6% (inactive); 7: -4.8% (inactive)

Here are 4 molecules. What values of inhibition were reported for them?
1. COc1ccc(S(=O)(=O)N2CCN(Cc3ccc(Cl)cc3)CC2)cc1
2. O=C(CN1CCSCC1)N1CCc2[nH]c3ccc(Br)cc3c2C1
3. CCOC(=O)Nc1nnc(-c2ccccc2OC)s1
4. COCCn1c(CN2CCN(c3ccccc3F)CC2)nc2c1c(=O)n(C)c(=O)n2C

## Result
-0.4% (inactive)
-4.93% (inactive)
-0.14% (inactive)
-1.2% (inactive)

====

test: reversal of MRP1-mediated doxorubicin resistance, pilot screen, H69AR cells, doxorubicin co-treatment (AID 601); details: H69AR cells + 2 uM doxorubicin, CellTiter-Glo, 72 h; measured here: viability with 2 uM doxorubicin; at 10 µM; stronger effect = lower value
Task for the reader: assign each of the following molecules its reported viability.
Answers are plain numbers, in %.

Please review the following examples before continuing.
COc1ccc(OCCN2C(=O)NC(C)(c3ccc(C)cc3)C2=O)cc1 (stereo unspecified); 94.9
CCOC(=O)c1[nH]c(C)c(C(=O)Nc2cc(OC)ccc2OC)c1C; 71.3
NS(=O)(=O)c1ccc(CCNC(=O)c2cccnc2)cc1; 93.4
O=C(NC(=O)c1ccc(Cl)cc1)Nc1cc(N2CCCCC2)ncn1; 93
COc1ccccc1OCc1ccc(C(=O)Nc2ccncc2)o1; 89.4

Field: next molecule
In plain terms, Cc1c(NC(=O)c2ccc(COc3ccc4ccccc4c3)o2)c(=O)n(-c2ccccc2)n1C has a documented viability of 85.3

====

What viability was measured for each of the following?
test: HUVEC growth inhibition – cell-based, human, primary screen (AID 575); settings: HUVEC proliferation, CellTiter-Glo luminescence, 72 h; at 10 µM; stronger effect = lower value;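 also: 100% = median of untreated cell wells with 0.1% DMSO on each plate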
Active and inactive are the calls of the source.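 Rule for the calls: active = viability at or below 30% in both replicate assays; inconclusive = viability at or below 30% in just one of the two assays; inactive = the rest.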

Cc1ccc2nc3c(cc(C(=O)NCC4CCCO4)n3C)c(=O)n2c1 (centres undefined); 110% (inactive)
O=S(=O)(c1ccc2c(c1)OCCO2)N1CCN(Cc2ccc3c(c2)OCO3)CC1; 105% (inactive)
Cc1nnc(N(C)C(=O)c2cccnc2)s1; 93.1% (inactive)
Cc1cccc2cc(C#N)c(SCCN3CCCCC3)nc12; 61.8% (inactive)
COc1ccc(CCN2C(=O)CC(N3CCN(S(=O)(=O)c4ccccc4)CC3)C2=O)cc1 (centres undefined); 107% (inactive)

Dear colleague, could you please provide viability for the compounds listed below?
1. CCn1cc(C2Nc3ccccc3C(=O)N2O)c(C)n1 (centres undefined)
2. Cc1cc(=O)oc(C)c1C(=O)O
3. C=CCSc1nnc2n(-c3ccccc3OC)c(=O)c3c4c(sc3n12)CCC4

## Result
1. 126% (inactive)
2. 97.1% (inactive)
3. 79.9% (inactive)

====

experiment: HUVEC growth inhibition – cell-based, human, primary screen (AID 575); details: HUVEC proliferation, CellTiter-Glo luminescence, 72 h; at 10 µM;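 also: 100% = median of untreated cell wells with 0.1% DMSO on each plate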
Active and inactive are the calls of the source.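 The calls were made as follows: active = viability at or below 30% in both replicate assays; inconclusive = viability at or below 30% in just one of the two assays; inactive = the rest.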
Would you mind answering with one of these outcomes? 1 = active, 0 = inactive

## Task Please share the test call associated with Cc1ccc(Cn2c(=N)c(C(=O)NCc3ccco3)cc3c(=O)n4ccccc4nc32)cc1 .
## Result 0

## Task Hi, do you know how CC1=NS(=O)(=O)c2cc(Cl)ccc2N1 came out in this test?
## Result 0

====

test: reversal of MRP1-mediated doxorubicin resistance, pilot screen, H69AR cells, doxorubicin co-treatment (AID 601); settings: H69AR cells, CellTiter-Glo, 72 h; compound alone cytotoxicity; at 10 µM
Just a reminder that ties go to not fulfilled: only viability strictly below 90% counts as fulfilled.

O=c1nc(N2CCCC2)nc(Nc2ccccc2)[nH]1; fulfilled

## Task viability strictly < 90% for this molecule? CCS(=O)(=O)N1CCC(C(=O)NCc2cccs2)CC1
## Result not fulfilled

## Task Would you kindly verify if viability of Cc1ccc(S(=O)(=O)c2cc3c(=O)n4ccccc4nc3n(CC3CCCO3)c2=N)cc1C (stereo unspecified) is strictly less than 90%?
## Result fulfilled

## Task Please check: viability for CCCC(=O)Nc1ccc(NC(=O)c2ccccc2OC)cn1 , strictly under 90% or not?
## Result not fulfilled

## Task Here's an entry: Cc1ccn2cc(CCNC(=O)CC(C)(C)C)nc2c1 . Is its viability below 90%?
## Result not fulfilled

## Task Strictly below 90%: is that where viability of C=C(C)COc1ccc(-c2nc(N)ncc2-c2ccc(OC)cc2)c(O)c1 sits?
## Result fulfilled

## Task In the record for Cc1cccc(C)c1NC(=O)COC(=O)c1nonc1N , is viability less than 90%?
## Result not fulfilled

## Task viability under 90%? Item: CN(C)CCCC1(c2ccc(F)cc2)OCc2cc(C#N)ccc21 (stereo unspecified)
## Result not fulfilled

====

experiment: growth inhibitors of H69AR lung tumor, primary screen, human, duplicate replicates (AID 580); conditions: H69AR lung tumor cells viability, ATP luminescence, 72 h; at 10 µM; stronger effect = lower value;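 also: 100% = mean luminescence of untreated wells and 0% = no signal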
Provide the recorded viability for the entries that follow.
Answers are plain numbers, in %.

CN(C(=O)C1CCCO1)c1nnc(-c2ccncc2)s1 (centres undefined); 100
COC(=O)c1sc(S(=O)(=O)N2CCN(c3ccccc3)CC2)c(C(=O)OC)c1C; 85.6
CN1CCCc2cc(C#N)c(=O)[nH]c21; 107
CC1=NN(c2ccccc2)C(=O)C1; 94.5
COc1ccc(C)cc1NC(=O)CCC(=O)Nc1ccc2nc(N3CCN(C)CC3)cc(C)c2c1; 93.2

# return viability for each item in the list
1. CC1(C)CN=C(N2CCN(c3ncnc4sc5c(c34)CCCC5)CC2)S1
2. COc1ccc(CC(=O)OCn2nnc3ccccc3c2=O)cc1
3. CCCCOc1ccc(C(=O)N2CCC(C)CC2)cc1

## Result
1: 77.3; 2: 98; 3: 104

====

assay: reversal of MRP1-mediated doxorubicin resistance, pilot screen, H69AR cells, doxorubicin co-treatment (AID 601); conditions: H69AR cells, CellTiter-Glo, 72 h; compound alone cytotoxicity; at 10 µM
property: viability (%)
One number for each entry, in %.

O=C1OC(c2ccc(O)cc2)(c2ccc(O)cc2)c2ccccc21; 102
O=C(Nc1ccc2[nH]c3c(c2c1)CCCC3)c1ccco1; 63.1

For every item below, please supply its viability.
1. C/C(Cl)=C\Cn1c(Nc2ccc(C)cc2)nc2c1c(=O)n(C)c(=O)n2C
2. CN(C)c1cccc(N=C2C=C(N3CCOCC3)CC(C)(C)C2)c1

## Result
1: 72.1; 2: 91.8

Respectfully, I request viability for each entry included below.
1. CC(C)C12CN3CC(C(C)C)(CN(C1)C3c1ccc3c(c1)OCO3)C2=O (stereo unspecified)
2. COC(=O)c1ccccc1NC(=O)C1CCN(S(=O)(=O)c2cc(C)ccc2OC)CC1
3. Cc1cc(NC(=O)CSc2nc(C3CCCCC3)nc3ccccc23)no1
4. O=C(NC1CCCCC1)N(Cc1ccc(F)cc1)Cc1nc2ccccc2c(=O)[nH]1

## Result
1: 85.5; 2: 79.1; 3: 80; 4: 100

I need viability for every entry listed below, if you could help.
1. COc1ccccc1-c1coc2c(CN3CCN(CCO)CC3)c(O)ccc2c1=O
2. CCc1nc2sc3ccccc3c(=O)c2c(=O)n1Cc1ccco1
3. Cc1ccc(Nc2nnns2)cc1C
4. COc1ccc(CCNc2oc(-c3ccco3)nc2C#N)cc1
5. CCOC(=O)C1CCN(c2nc3ccccc3nc2C(C#N)C(=O)OC(C)C)CC1 (stereo unspecified)
6. CC1Cc2ccccc2N1C(=O)CSc1nc2ccccc2n1CC(=O)N1CCOCC1 (stereo unspecified)
7. CCOC(=O)CSc1nnc(-c2ccc(NS(=O)(=O)c3ccc(C)cc3)cc2)o1
8. Cc1nn(CC(O)Cn2c3c(c4ccccc42)CCN(C)C3=O)c(C)c1Br (stereo unspecified)

## Result
1. 106
2. 77
3. 99.8
4. 94.6
5. 84.2
6. 97.8
7. 91.5
8. 69.8
